- Test system: HEK-293T
- Protocol description: Incucyte cell viability with HEK293T; note: unitless GR value; below 1 slowed growth and below 0 cell loss
- Type: toxicity, cell-based
- Condition context: human, 0 h, 10 µM, compound concentration 10 uM, replicate number 2
Observation type: Growth Rate

These recorded examples may help you get a feel for the data.
1) CCc1ccc(-c2ncn(CC3(F)CCN(C)CC3)c2-c2ccnc3[nH]ccc23)nc1    0.98
2) O=C1NC(Nc2ccccc2)=N/C1=C\c1ccc2c(c1)OCO2    0.1
3) COC(=O)C1=C(C)NC(C)=C(C(=O)OC(C)C)C1c1cccc2nonc12 (centres undefined)    0.32
4) Cl.O=c1cc(C2CCNCC2)n2nc3cccc(Cl)c3c2[nH]1    -0.61
5) CC1(C)Cc2nc(C3CCCC3)c([C@@H](F)c3ccc(C(F)(F)F)cc3)c(C3CCCCC3)c2[C@@H](O)C1    -0.11

**Q:** Dear colleague, I am looking for the recorded Growth Rate of the following compound: O[C@]1(C(F)(F)F)CCCC[C@H]1Nc1ccc(F)cc1
**A:** -0.23

**Q:** Dear colleague, I am looking for the recorded Growth Rate of the following compound: FC(F)(F)Oc1ccc(-c2ccc3nnc(C(F)(F)F)n3c2)cc1
**A:** 0.64

**Q:** Dear colleague, I am looking for the recorded Growth Rate of the following compound: O=C(O)C[C@H]1CCn2c1c(Sc1ccc(Cl)cc1)c1ccc(F)cc12
**A:** -0.28

**Q:** Dear colleague, I am looking for the recorded Growth Rate of the following compound: CC(C)(O)[C@H]1CC[C@H](Nc2ccc3ncc(-c4cccc(C(F)(F)F)c4)n3n2)CC1
**A:** -0.24
